Collected hydrolysis rate constant k values appear next to each entry.
# Protocol Details: Linker solution hydrolysis (release of drug mimic, HPLC, first order rate constant)
# Assay type: physicochemical
# Reported Conditions: pH 1, PBS, 37° C.
Reported Property: hydrolysis rate constant k (h⁻¹)

- NCC(=O)OCCCc1ccccc1 [Gly/3PP, 3-Phenylpropyl Glycinate]: 0.004
- NCC(=O)OCc1ccccc1 [Gly/Bn, Benzyl Glycinate]: 0.002
- NCCCC(=O)OCCCc1ccccc1 [GABA/3PP, 3-Phenylpropyl GABA]: 0.034
- NCCCC(=O)OCc1ccccc1 [GABA/Bn, Benzyl GABA]: 0.026
